- target: Recombinant human AKR1C3 (17β-HSD5) protein (Homo sapiens)
- Construct: made in house; host or cells: E. coli
- Sequence (P42330 whole entry): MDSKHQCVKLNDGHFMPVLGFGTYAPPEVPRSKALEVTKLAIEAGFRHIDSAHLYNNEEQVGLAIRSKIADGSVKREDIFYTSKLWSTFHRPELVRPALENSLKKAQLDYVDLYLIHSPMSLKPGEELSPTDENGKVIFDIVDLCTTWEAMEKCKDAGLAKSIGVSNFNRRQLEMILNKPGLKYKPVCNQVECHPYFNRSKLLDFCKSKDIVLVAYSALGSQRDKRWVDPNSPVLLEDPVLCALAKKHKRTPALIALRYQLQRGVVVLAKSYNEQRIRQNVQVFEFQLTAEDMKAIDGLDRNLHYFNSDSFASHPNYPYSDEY
- protocolText: Inhibition of AKR1C3 (17β-hydroxysteroid dehydrogenase type 5) enzyme, fluorescence assay
- Type: biochemical
- conditionSet: inhibitor at 500 nM
readoutKind: inhibition at 0.5 µM (%)

molecule="CC(O)C1CCN(C(=O)N2CCC(=C(C#N)c3ccc(OC(F)(F)F)cc3)CC2)CC1 (centres unmarked)" readoutkind="inhibition at 0.5 µM" valueunit=% testvalue=91
molecule=N#CC(=C1CCN(C(=O)N2CCC(CO)CC2)CC1)c1cccc(Cl)c1 readoutkind="inhibition at 0.5 µM" valueunit=% testvalue=99
molecule=N#CC(=C1CCN(C(=O)N2CCC(O)CC2)CC1)c1cccc2[nH]ncc12 readoutkind="inhibition at 0.5 µM" valueunit=% testvalue=100
molecule=CN(C(=O)N1CCC(=C(C#N)c2ccc(Cl)cc2)CC1)C1CCOCC1 readoutkind="inhibition at 0.5 µM" valueunit=% testvalue=98
molecule=N#CC(=C1CCN(C(=O)N2CCc3cc(F)ccc32)CC1)c1ccc(F)cc1 readoutkind="inhibition at 0.5 µM" valueunit=% testvalue=96
molecule=N#CC(=C1CCN(C(=O)N2CCn3nncc3C2)CC1)c1ccc(F)cc1 readoutkind="inhibition at 0.5 µM" valueunit=% testvalue=99
molecule=N#CC(=C1CCN(C(=O)N2CCCCC2)CC1)c1ccc(Cl)cc1 readoutkind="inhibition at 0.5 µM" valueunit=% testvalue=96
molecule=N#CC(=C1CCN(C(=O)N2CCc3[nH]ncc3C2)CC1)c1ccc(F)cc1 readoutkind="inhibition at 0.5 µM" valueunit=% testvalue=98
molecule=N#CC(=C1CCN(C(=O)N2CCc3cccnc32)CC1)c1ccc(F)cc1 readoutkind="inhibition at 0.5 µM" valueunit=% testvalue=95
molecule=N#CC(=C1CCN(C(=O)N2CCC(O)CC2)CC1)c1cccc2cn[nH]c12 readoutkind="inhibition at 0.5 µM" valueunit=% testvalue=86
molecule=COCC1CCN(C(=O)N2CCC(=C(C#N)c3ccc(Cl)s3)CC2)CC1 readoutkind="inhibition at 0.5 µM" valueunit=% testvalue=94
molecule=N#CC(=C1CCN(C(=O)N2Cc3ccccc3C2)CC1)c1ccc(F)cc1 readoutkind="inhibition at 0.5 µM" valueunit=% testvalue=96
molecule=N#CC(=C1CCN(C(=O)N2CCc3[nH]ncc3C2)CC1)c1ccc(OC(F)(F)F)cc1 readoutkind="inhibition at 0.5 µM" valueunit=% testvalue=99
molecule=CN(C(=O)N1CCC(=C(C#N)c2ccc(Cl)cc2)CC1)C1COC1 readoutkind="inhibition at 0.5 µM" valueunit=% testvalue=95
molecule=COC1CN(C(=O)N2CCC(=C(C#N)c3ccc(F)cc3)CC2)C1 readoutkind="inhibition at 0.5 µM" valueunit=% testvalue=88
molecule=COC1CCN(C(=O)N2CCC(=C(C#N)c3ccc(Cl)s3)CC2)CC1 readoutkind="inhibition at 0.5 µM" valueunit=% testvalue=99
molecule=N#CC(=C1CCN(C(=O)N2CCC(S(N)(=O)=O)CC2)CC1)c1ccc(Cl)s1 readoutkind="inhibition at 0.5 µM" valueunit=% testvalue=96
molecule=N#CC(=C1CCN(C(=O)N2CCC(CCCO)CC2)CC1)c1cccc(Cl)c1 readoutkind="inhibition at 0.5 µM" valueunit=% testvalue=94
molecule=N#CC(=C1CCN(C(=O)N2CCC(C(F)(F)F)CC2)CC1)c1ccc(Cl)cn1 readoutkind="inhibition at 0.5 µM" valueunit=% testvalue=92
molecule="CC(O)C1CCN(C(=O)N2CCC(=C(C#N)c3ccc(C(F)(F)F)cc3)CC2)CC1 (centres unmarked)" readoutkind="inhibition at 0.5 µM" valueunit=% testvalue=93
molecule=N#CC(=C1CCN(C(=O)N2CCn3ncnc3C2)CC1)c1ccc(F)cc1 readoutkind="inhibition at 0.5 µM" valueunit=% testvalue=97
molecule=N#CC(=C1CCN(C(=O)N2CCc3nocc3C2)CC1)c1ccc(Cl)s1 readoutkind="inhibition at 0.5 µM" valueunit=% testvalue=99
molecule=N#CC(=C1CCN(C(=O)N2CCC(O)CC2)CC1)c1ccc(F)cc1 readoutkind="inhibition at 0.5 µM" valueunit=% testvalue=99
molecule=N#CC(=C1CCN(C(=O)N2CCc3nocc3C2)CC1)c1ccc(Cl)cn1 readoutkind="inhibition at 0.5 µM" valueunit=% testvalue=98
molecule=N#CC(=C1CCN(C(=O)N2CCC(S(N)(=O)=O)CC2)CC1)c1ccc(Cl)cc1 readoutkind="inhibition at 0.5 µM" valueunit=% testvalue=97
molecule=N#CC(=C1CCN(C(=O)N2CCc3sccc3C2)CC1)c1ccc(Cl)cc1 readoutkind="inhibition at 0.5 µM" valueunit=% testvalue=103
molecule=N#CC(=C1CCN(C(=O)N2CCC(O)CC2)CC1)c1n[nH]c2ccccc12 readoutkind="inhibition at 0.5 µM" valueunit=% testvalue=97
molecule=N#CC(=C1CCN(C(=O)N2CCC(CCO)CC2)CC1)c1ccc(Cl)cc1 readoutkind="inhibition at 0.5 µM" valueunit=% testvalue=98
molecule=CCOC1CCN(C(=O)N2CCC(=C(C#N)c3cccc4[nH]ncc34)CC2)CC1 readoutkind="inhibition at 0.5 µM" valueunit=% testvalue=96
molecule=Cn1ncc2cccc(C(C#N)=C3CCN(C(=O)N4CCc5[nH]ncc5C4)CC3)c21 readoutkind="inhibition at 0.5 µM" valueunit=% testvalue=99
molecule=N#CC(=C1CCN(C(=O)N2CCC(O)CC2)CC1)c1ccc(F)c(F)c1 readoutkind="inhibition at 0.5 µM" valueunit=% testvalue=96
molecule=N#CC(=C1CCN(C(=O)N2CCC(C(F)(F)F)CC2)CC1)c1ccc(Cl)cc1 readoutkind="inhibition at 0.5 µM" valueunit=% testvalue=99
molecule=N#CC(=C1CCN(C(=O)N2CCC(O)CC2)CC1)c1cccc(Cl)c1 readoutkind="inhibition at 0.5 µM" valueunit=% testvalue=99
molecule=N#CC(=C1CCN(C(=O)N2CC(CO)C2)CC1)c1ccc(F)cc1 readoutkind="inhibition at 0.5 µM" valueunit=% testvalue=72
molecule=N#CC(=C1CCN(C(=O)N2CCc3[nH]ncc3C2)CC1)c1ccc(F)cc1F readoutkind="inhibition at 0.5 µM" valueunit=% testvalue=99

====

- target: Recombinant human AKR1C3 (17β-HSD5) protein (Homo sapiens)
- Construct: made in house; host or cells: E. coli
- protocolText: Inhibition of AKR1C3 (17β-hydroxysteroid dehydrogenase type 5) enzyme, fluorescence assay
- Assay type: biochemical
- conditionSet: inhibitor at 500 nM
Reported inhibition at 0.5 µM values for a set of compounds
readoutKind: inhibition at 0.5 µM (%)

chemicalstring=N#CC(=C1CCN(C(=O)N2C3CCC2COC3)CC1)c1ccc(F)c(F)c1 valueunit=% testvalue=95
chemicalstring=CC(C)OC1CCN(C(=O)N2CCC(=C(C#N)c3ccc(Cl)cc3)CC2)CC1 valueunit=% testvalue=97
chemicalstring=N#CC(=C1CCN(C(=O)N2CCc3sccc3C2)CC1)c1ccc(F)cc1 valueunit=% testvalue=98
chemicalstring=CC(C)OC1CCN(C(=O)N2CCC(=C(C#N)c3cccc(Cl)c3)CC2)CC1 valueunit=% testvalue=93

====

- target: 17β-Hydroxysteroid Dehydrogenase Type 2 Enzyme (17β-HSD2) (Homo sapiens)
- Construct: made in house; host or cells: Sf-9 insect cells (baculovirus)
- Sequence (P37059 whole entry): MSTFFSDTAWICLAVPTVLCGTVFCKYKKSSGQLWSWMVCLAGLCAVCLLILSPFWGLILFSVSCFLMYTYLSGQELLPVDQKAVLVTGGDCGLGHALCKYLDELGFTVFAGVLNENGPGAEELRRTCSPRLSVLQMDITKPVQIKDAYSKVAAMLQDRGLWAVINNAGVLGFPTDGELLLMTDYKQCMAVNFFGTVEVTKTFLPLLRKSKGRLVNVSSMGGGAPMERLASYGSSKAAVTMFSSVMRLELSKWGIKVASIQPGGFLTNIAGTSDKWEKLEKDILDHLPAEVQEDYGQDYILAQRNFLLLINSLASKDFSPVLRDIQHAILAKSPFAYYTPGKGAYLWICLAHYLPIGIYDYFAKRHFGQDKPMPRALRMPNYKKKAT
- protocolText: Inhibition of the 17β-hydroxysteroid dehydrogenase type 2 enzyme, 3H-testosterone conversion
- Format: biochemical
- conditionSet: inhibitor at 10 μM
// label = true (1) if inhibition at 10 µM is not less than 20%, otherwise false (0)

compound="N#CC(=C1CCN(C(=O)N2CCn3cncc3C2)CC1)c1ccc(F)cc1F [Compound 123]" group="false (0)"
compound="N#CC(=C1CCN(C(=O)N2CCC(CO)CC2)CC1)c1cccc2[nH]ncc12 [Compound 49]" group="true (1)"
compound="N#CC(=C1CCN(C(=O)N2CCc3sccc3C2)CC1)c1ccc(OC(F)(F)F)cc1 [Compound 117]" group="true (1)"
compound="N#CC(=C1CCN(C(=O)N2CCc3sccc3C2)CC1)c1cc(F)cc(F)c1 [Compound 51]" group="true (1)"
compound="N#CC(=C1CCN(C(=O)N2CCc3nocc3C2)CC1)c1cccc2[nH]ncc12 [Compound 138]" group="false (0)"
compound="N#CC(=C1CCN(C(=O)N2CCCC2)CC1)c1ccc(F)cc1 [Compound 6]" group="false (0)"
compound="CCCOC1CCN(C(=O)N2CCC(=C(C#N)c3ccc(Cl)cc3)CC2)CC1 [Compound 134]" group="false (0)"
compound="COCC1CCN(C(=O)N2CCC(=C(C#N)c3ccc(Cl)s3)CC2)CC1 [Compound 75]" group="true (1)"
compound="N#CC(=C1CCN(C(=O)N2CCc3ccccc32)CC1)c1ccc(F)cc1 [Compound 102]" group="false (0)"
compound="N#CC(=C1CCN(C(=O)N2CCC(O)CC2)CC1)c1ccc(C(F)(F)F)cc1 [Compound 127]" group="false (0)"
compound="N#CC(=C1CCN(C(=O)N2CC3CCCC3C2)CC1)c1ccc(F)cc1 (centres unmarked) [Compound 101]" group="false (0)"
